Target: FRMPD2_1, Q68DX3
Sequence (Q68DX3 770-861): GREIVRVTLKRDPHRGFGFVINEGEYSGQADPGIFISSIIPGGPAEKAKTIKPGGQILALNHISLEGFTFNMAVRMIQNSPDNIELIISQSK
Assay: holdup assay
Parameters: key: below the threshold = too weak to quantify, mostly under pKd 3.1 to 4
Conditions: plain residues with an end cap or a label only (N-terminal biotin on a linker: ttds)
result type: pKd

Please review the entries below; each comes with its answer.
[[record]]
binder = "SHSSKGETAV [FZD7, O75084]"
recorded_measurement = 3.8

[[record]]
binder = "KQVVPFSSSV [GDA, Q9Y2T3]"
recorded_measurement = "below the threshold"

[[record]]
binder = "SGGKRKETLV [NET1, Q7Z628]"
recorded_measurement = 3.95

[[record]]
binder = "PFRSRSPSEV [GPR6, P46095]"
recorded_measurement = "below the threshold"

[[record]]
binder = "PSRDRKETSI [RALBP1, Q15311]"
recorded_measurement = "below the threshold"


Which value of pKd has been reported for SSIDLWETAL [SLC15A5, A6NIM6] in the records?
below the threshold

Same lookup for NPDALPETLV [ARHGAP6, O43182] , please.
below the threshold

Could you do the same for PPRQRSETQV [HPV82-E6, Q9IR59] , please?
3.5
